These measurements were taken from ChEMBL document CHEMBL1201862.

Below is a list of entries, each paired with its recorded GI50 value.
- System: SK-MEL-5
- Procedure summary: NCI tumour cell line growth inhibition, 48 h
Activity calls are given as the source filed them. Cut-off read from the data, not from the text of the source: active = GI50 up to about 1.1 µM and inactive = higher.

1) CN(C)c1ccc(/C=C2\N=C(N/N=C/c3ccccc3)NC2=O)cc1 ... 41.1 µM (inactive)
2) O=[N+]([O-])c1cccc(CSc2nc(O)c3nc[nH]c3n2)c1 ... > 100 µM (inactive)
3) CCOC(=O)C1C(=O)CC(C)(O)C(C(=O)OCC)C1c1ccc(O)c(OC)c1 (centres undefined) ... > 100 µM (inactive)
4) O=c1cc[nH]c2ccc3nn[nH]c3c12 ... > 100 µM (inactive)
5) O=c1[nH][nH]c(=O)n1CCCCCCn1c(=O)[nH][nH]c1=O ... > 100 µM (inactive)

Moving on to the next compound.
Prompt: For the compound COc1ccc(C2=Nc3c(nc(SC)[nH]c3=O)NC(c3ccccc3)C2)cc1 (centres undefined) , what GI50 is on record?
Response: 16.6 µM (inactive)
